target: Phosphodiesterase 4 (Homo sapiens, UniProt P27815+Q08499+Q07343+Q08493); test: Affinity for phosphodiesterase (PDE IV) in guinea pig brain membrane using [3H]rolipram displacement.; assay type: cell membranes, Cavia porcellus; conditions: target entry is the homologue from another species
MEASUREMENT LABEL: Ki (µM)
Numeric answer only, unit µM assumed.

COc1ccc(C2(CC#N)CCN(C(=O)OC(C)(C)C)C2=O)cc1OC1CCCC1 (centres undefined); 0.476
COc1ccc(C2(Cc3ccncc3)CCN(S(=O)(=O)c3ccc(C)cc3)C2=O)cc1OC1CCCC1 (centres undefined); 0.217
COc1ccc(C2(Cc3ccncc3)CCN(Cc3ccc4ccccc4c3)C2=O)cc1OC1CCCC1 (centres undefined); 0.0043
COc1ccc(C2(Cc3ccncc3)CCNC2=O)cc1OC1CCCC1 (centres undefined); 0.21
COc1ccc(C2CCN(C(=O)OC(C)(C)C)C2=O)cc1OC1CCCC1 (centres undefined); 0.337
COc1ccc(C2(Cc3ccncc3)CCN(CCC(C)C)C2=O)cc1OC1CCCC1 (centres undefined); 0.08
COc1ccc(C2(Cc3ccncc3)CCN(C(=O)OC(C)(C)C)C2)cc1OC1CCCC1 (centres undefined); 0.47
COc1ccc(C2(Cc3ccncc3)CCN(C(C)=O)C2=O)cc1OC1CCCC1 (centres undefined); 0.367
COc1ccc(C2(Cc3ccccc3)CCN(C(=O)OC(C)(C)C)C2=O)cc1OC1CCCC1 (centres undefined); 2.996
COc1ccc(C2(Cc3ccncc3)CCN(Cc3cccc4ccccc34)C2=O)cc1OC1CCCC1 (centres undefined); 0.822

Briefly, Ki measured for COc1ccc(C2(Cc3ccccc3)CCNC2=O)cc1OC1CCCC1 (centres undefined) : 0.787

Ki for COc1ccc(C2(Cc3ccncc3)CCN(C(=O)N(C)C)C2=O)cc1OC1CCCC1 (centres undefined) is 0.274

Value of Ki reported for the compound COc1ccc(C2(Cc3ccncc3)CCN(Cc3ccncc3)C2=O)cc1OC1CCCC1 (centres undefined) is 0.443

====

Catalogue of IC50 values
target: Phosphodiesterase 4 (Homo sapiens, UniProt P27815+Q08499+Q07343+Q08493); test: In vitro inhibition of phosphodiesterase (PDE IV) from guinea pig macrophages.; assay type: protein assay, Cavia porcellus; details: target entry is the homologue from another species
Your answer should be a plain number; it is taken to be in µM.

IC50 reading for COc1ccc(C2(Cc3ccncc3)CCN(C(=O)OC(C)(C)C)C2=O)cc1OC1CCCC1 (stereo not given) : 0.0063

Field IC50 (entry COc1ccc(C2(Cc3ccncc3)CCN(C(=O)N(C)C)C2=O)cc1OC1CCCC1 (stereo not given) ) reads 0.319

Short answer for COc1ccc(C2(Cc3ccncc3)CCN(Cc3ccccc3)C2=O)cc1OC1CCCC1 (stereo not given) : IC50 was 0.056

Consider COc1ccc(C2(CC#N)CCN(C(=O)OC(C)(C)C)C2=O)cc1OC1CCCC1 (stereo not given) . Its measured IC50 is 0.082

The measured IC50 associated with COc1ccc(C2(Cc3ccncc3)CCN(S(=O)(=O)c3ccc(C)cc3)C2=O)cc1OC1CCCC1 (stereo not given) reads 0.061

Record summary for COc1ccc(C2CCNC2=O)cc1OC1CCCC1 (stereo not given) : reported IC50 = 5

response.value for COc1ccc(C2CCN(C(=O)OC(C)(C)C)C2=O)cc1OC1CCCC1 (stereo not given) (field: IC50) = 0.7
